Tested on: IGROV1 ovarian
Assay: NCI tumour cell line growth inhibition, 48 h
VALUE KIND: TGI

Field: example entries. Status: answers known.
MOLECULE | TGI
COC(=O)C1CCC(C)CC1=O (stereo unspecified) | > 100 µM
O=C(Nc1nc(=S)[nH][nH]1)C(=O)C(c1cnc2ccc([N+](=O)[O-])cc2n1)[N+](=O)[O-] (stereo unspecified) | > 100 µM
CC(=O)C1(C(=O)C(=[N+]=[N-])S(=O)(=O)c2ccccc2)CC1 | > 100 µM

Task: Please tell me: TGI of Cn1cc(-c2ccc3ncc(-c4ccc(CC(=O)Nc5cc(C(C)(C)C)nn5C)cc4)cc3c2)cn1 , system IGROV1 ovarian?
Output: > 20 µM

Task: Thanks! And Nc1nc(-c2ccccc2)c(CC(=O)O)s1 ?
Output: > 100 µM

Task: Next entry: Cc1ccccc1Nc1cc(O)c2c(=O)cc(-c3ccccc3)oc2c1
Output: > 100 µM

* * *

Tested on: MDA-N
Assay: NCI tumour cell line growth inhibition, 48 h
VALUE KIND: TGI (µM)
Your answer is read as µM, so omit the unit and give the number.

COMPOUND | TGI, µM
COC(=O)CCC(C)[C@H]1CCC2C3CC[C@@H]4CC5(CC[C@]4(C)C3C[C@H](OC(C)=O)[C@@]21C)OOC1(CCCCC1)OO5 (some centres undefined) | 35

Kindly consider the entry below.
Task: Which TGI is reported for this compound? O=c1[nH]c2c(Nc3c4ccccc4nc4ccccc34)c([N+](=O)[O-])c(Nc3c4ccccc4nc4ccccc34)c([N+](=O)[O-])c2[nH]1
Output: 8.49

* * *

Test system: SR leukemia
Test: NCI tumour cell line growth inhibition, 48 h; in the data active = GI50 below about 0.43 µM; inactive = the rest
# output must be one of YES for active, NO for inactive

Solved entries:
MOLECULE | SYSTEM | CATEGORY
CCN1C(=O)N(CC)C2C1NC(=S)N2/N=C/C=C/c1ccccc1 (stereo not drawn) | SR leukemia | YES
COc1cc([C@@H]2c3cc4c(cc3[C@H](SC(=N)N)[C@H]3COC(=O)[C@H]23)OCO4)cc(OC)c1OC | SR leukemia | YES

Next:
Task: For NC(=O)c1nc(-c2c(F)cccc2Cl)oc1Nc1ccc(C(=O)N2CCOCC2)cc1 , what call appears in the results of this test?
Output: NO

* * *

System: OVCAR-4 ovarian
Experiment: NCI tumour cell line growth inhibition, 48 h
VALUE KIND: TGI

COMPOUND | RECORDED VALUE
COC(=O)c1c(O)ccc2c1c1c(n2Cc2ccc(OC)cc2)C(=O)c2ccccc2C1 | > 100 µM
O=c1c2ccc(Cl)cc2oc2c(CSc3ccccc3)cccc12 | > 100 µM

Task: I'd like to know its TGI. The compound in question is O=C(Nc1nc(=S)[nH][nH]1)C(=O)C(c1cnc2ccc([N+](=O)[O-])cc2n1)[N+](=O)[O-] (stereo unspecified)
Output: > 100 µM

Task: Thanks! And CN(C)C1C(=O)C(C(N)=O)=C(O)C2(O)C(=O)C3=C(O)c4c(O)cccc4C(C)(O)C3CC12.[Cl][Sb]([Cl])[Cl] (stereo unspecified) ?
Output: 19 µM

Task: Now give it for CN(C)CCNC(=O)Nc1ccc(N(C)c2ccnc(Nc3ccc(CS(C)(=O)=O)cc3)n2)cc1 too.
Output: > 25 µM

* * *

Test system: UO-31 renal
Test: NCI tumour cell line growth inhibition, 48 h
VALUE KIND: TGI

Study these solved cases before continuing.
COMPOUND | RECORDED VALUE
CCC(Oc1ccc(OC)c2c1C(=O)CCC2)C(=O)O (centres undefined) | > 100 µM
COc1ccc(S(=O)(=O)NC(CCC(=O)NC(N)=O)C(=O)NC(N)=O)cc1 (centres undefined) | > 100 µM
COc1ccc(-c2cnc(-c3ccncc3-c3cccc(OC)c3)o2)cc1 | 14.2 µM

Kindly review the next compound as well.
Task: Name the recorded TGI for Nc1c(C(=O)Nc2ccccc2)sc2nc3c(cc12)C(=O)CCC3 .
Output: > 100 µM

* * *

Tested on: SF-295 CNS
Assay: NCI tumour cell line growth inhibition, 48 h
VALUE KIND: TGI

MOLECULE | SYSTEM | TGI
COc1ccc(N(CC(=O)O)N=O)cc1 | SF-295 CNS | > 100 µM

Task: // returns reported TGI for input COC(=O)CCC(C)[C@H]1CCC2C3CC[C@@H]4CC5(CC[C@]4(C)C3C[C@H](OC(C)=O)[C@@]21C)OOC1(CCCCC1)OO5 (stereo partly drawn)
Output: > 100 µM

Task: Record: C[n+]1cn(CC(=O)c2ccccc2)c(C(N)=O)c1N
Output: > 100 µM

* * *

Test system: HL-60(TB) leukemia
Test: NCI tumour cell line growth inhibition, 48 h
VALUE KIND: TGI

COMPOUND | SYSTEM | TGI
CC(=O)O[C@H]1CC[C@@H](OC(C)=O)[C@H]2[C@H](O)[C@H](O)[C@@H]1n1c(=O)n(-c3ccccc3)c(=O)n12 | HL-60(TB) leukemia | > 100 µM
COc1ccc2oc(=O)c(-c3cc4c(c(C)n3)c(=O)oc3ccc(OC)cc34)cc2c1 | HL-60(TB) leukemia | > 100 µM
CC(C)C(NCc1c2ccccc2[n+](C)c2ccccc12)C(=O)O (stereo not drawn) | HL-60(TB) leukemia | > 21 µM
CN(C)C1C(=O)C(C(N)=O)=C(O)C2(O)C(=O)C3=C(O)c4c(O)cccc4C(C)(O)C3CC12.[Cl][Sb]([Cl])[Cl] (stereo not drawn) | HL-60(TB) leukemia | 9.9 µM
N#Cc1c(-c2ccccc2)c(-c2ccccc2)cc2c(=O)c3ccc(Cl)cc3[nH]c12 | HL-60(TB) leukemia | > 100 µM
O=C(/C=C\c1ccccc1)Oc1ccc(/C=C2\CCC/C(=C\c3ccc(OC(=O)/C=C\c4ccccc4)cc3)C2=O)cc1 | HL-60(TB) leukemia | > 100 µM
CC(=O)OC12c3ccccc3C(c3ccccc31)C1C(=O)N(N=C(C)C)C(=O)C12 (stereo not drawn) | HL-60(TB) leukemia | > 100 µM
COc1cc([C@@H]2c3cc4c(cc3[C@H](SC(=N)N)[C@H]3COC(=O)[C@H]23)OCO4)cc(OC)c1OC | HL-60(TB) leukemia | > 100 µM

Task: Dear colleague, I am looking for the recorded TGI of the following compound: N#CC(C(=O)Nc1ccccc1)C1=C(Cl)C(=O)c2ccccc2C1=O (stereo not drawn)
Output: 20.5 µM

Task: Now try C#Cc1cccc(NC(=O)/C=C\C(=O)O)c1 .
Output: > 100 µM

Task: And what about the compound CC(C)(C)OC(=O)N[C@H]1CC(=O)c2ccccc2N(CC(=O)O)C1=O ?
Output: > 100 µM

Task: Next compound: Nc1ncnc2c1c(-c1ccc(Oc3ccccc3)cc1)nn2CC1SSCC1O (stereo not drawn)
Output: 7.99 µM

* * *

Tested on: NCI-H522 lung
Assay: NCI tumour cell line growth inhibition, 48 h
Collected GI50 values appear next to each entry.

Here is how some compounds turned out for GI50.
SAMPLE SMILES | GI50
CCCCCCCCCCCCCC(=O)O[C@H]1CC[C@H](NC(=O)[C@H](OC)[C@H](O)[C@@H](O)[C@H](O)/C=C/C(C)C)C(=O)N(C)C1 | 6.89 nM
NC(=O)c1nc(-c2c(F)cccc2Cl)oc1Nc1ccc(C(=O)N2CCOCC2)cc1 | 2110 nM
COC(=O)c1ccc(NC(N)=NCCC(C)(C)c2ccc(C(F)(F)F)cc2)nc1 | 3100 nM
CN(C)CCNC(=O)Nc1ccc(N(C)c2ccnc(Nc3ccc(CS(C)(=O)=O)cc3)n2)cc1 | > 16900 nM

Turning now to a further record.
Task: Given the entry CN(C)CCCOc1ccc(NC2=C(Cl)C(=O)C(Nc3ccc(OCCCN(C)C)cc3)=C(Cl)C2=O)cc1 , report its measured GI50.
Output: 236 nM

* * *

Entries annotated with measured TGI
System: EKVX NSCLC
Test: NCI tumour cell line growth inhibition, 48 h

Here are 5 compounds together with their reported answers.
COMPOUND | TGI
CO[C@H]1C(=O)[C@]2(C)[C@@H](OC)C[C@H]3OC[C@@]3(OC(C)=O)[C@H]2[C@H](OC(=O)c2ccccc2)[C@]2(O)C[C@H](OC(=O)[C@H](O)[C@@H](NC(=O)OC(C)(C)C)c3ccccc3)C(C)=C1C2(C)C | > 100 µM
O=C1C=CC2(O)OCC3C=C4O[C@@H]5OC6(CCCCC6)O[C@@H]5C4[C@@H]2[C@@H]13 (some centres undefined) | 78.7 µM
COc1cc2c(c3c1c(=O)c1ccccc1n3C)C=C([N+](=O)[O-])C(C)(C)O2 | > 100 µM
Cc1nc(C(=Nc2ccc(Br)cc2)Nn2cnnc2)no1 | > 100 µM
N#Cc1cc(F)cc(Oc2ccc(S(=O)(=O)C(F)F)c3c2CC(F)(F)[C@H]3O)c1 | > 100 µM

Task: Please report the recorded TGI for CCOC(=O)C1=C(C)N(NC(N)=O)C2(N)N(NC(N)=O)C(C)=C(C(=O)OCC)C12C#N (centres undefined) .
Output: > 100 µM

Task: What do you get for CC(C)(C)C(=O)c1c(O)c2ccccc2c2ccccc2c1=O ?
Output: > 100 µM

Task: Same lookup for Nc1c(C(=O)Nc2ccccc2)sc2nc3c(cc12)C(=O)CCC3 , please.
Output: > 100 µM

Task: Follow-up entry: Nc1nc(Cl)c2ncn(Cc3ccc(C45CC6CC(CC(C6)C4)C5)c(OCc4cc(F)c(F)cc4F)c3)c2n1
Output: 67.1 µM

Ref: PubChem BioAssay (NCI)
